Tested on: NF-κB activation
experimental_protocol: Inhibitory activity against NF-κB activation, luciferase reporter assay under TNF-α stimulation
Format: cell-based, human
condition_parameters: Drug Concentration 1 μg/mL; HepG2 cells, TNF-α 40 ng/ml, 4 hours
measured_attribute: Inhibitory Ratio of NF-κ B Activation(%)

Q: Quick check: Inhibitory Ratio of NF-κ B Activation(%) of O=C(Nc1cc(C(F)(F)F)ccc1Cl)c1cc(Cl)ccc1OP(=O)([O-])O.[Na+] ?
A: >99.9%

Q: Please give the result for O=C(Oc1ccc(Cl)cc1C(=O)Nc1cc(C(F)(F)F)cc(C(F)(F)F)c1)c1ccccc1 too.
A: 94.2%

Q: Please give the result for CCOc1ccc(Cl)cc1C(=O)Nc1cc(C(F)(F)F)cc(C(F)(F)F)c1 too.
A: 31.3%

Q: Please give the result for CCCCC(=O)Oc1ccc(Cl)cc1C(=O)Nc1cc(C(F)(F)F)cc(C(F)(F)F)c1 too.
A: 97.9%

Q: Please give the result for CC(C)(C)OC(=O)C[C@H](NC(=O)OC(C)(C)C)C(=O)Oc1ccc(Cl)cc1C(=O)Nc1cc(C(F)(F)F)cc(C(F)(F)F)c1 too.
A: 96.4%

Q: Please give the result for COC(=O)[C@H](C)NC(=O)Oc1ccc(Cl)cc1C(=O)Nc1cc(C(F)(F)F)cc(C(F)(F)F)c1 too.
A: 97.9%

Q: Please give the result for COC(=O)[C@H](Cc1ccccc1)NC(=O)Oc1ccc(Cl)cc1C(=O)Nc1cc(C(F)(F)F)cc(C(F)(F)F)c1 too.
A: 96.2%

Q: Please give the result for O=C(Cc1ccc2c(c1)OCO2)Oc1ccc(Cl)cc1C(=O)Nc1cc(C(F)(F)F)cc(C(F)(F)F)c1 too.
A: 94.6%

Q: Please give the result for CC(=O)OCC(=O)Oc1ccc(Cl)cc1C(=O)Nc1cc(C(F)(F)F)cc(C(F)(F)F)c1 too.
A: 97.3%

Q: Please give the result for COc1ccc(C(C)(C)C)cc1C(=O)Nc1cc(C(F)(F)F)cc(C(F)(F)F)c1 too.
A: 56.1%

Q: Please give the result for O=C(Nc1cc(C(F)(F)F)cc(C(F)(F)F)c1)c1cc(Cl)ccc1OC(=O)N1CCC(C(=O)O)CC1 too.
A: 56.2%

Q: Please give the result for CC(=O)OCOc1ccc(Cl)cc1C(=O)Nc1cc(C(F)(F)F)cc(C(F)(F)F)c1 too.
A: 94.9%

Q: Please give the result for CC(C)(C)c1cc(NC(=O)c2cc(Br)ccc2OP(=O)([O-])O)cc(C(C)(C)C)c1.[Na+] too.
A: 93.1%

Q: Please give the result for CCCS(=O)(=O)Oc1ccc(Cl)cc1C(=O)Nc1cc(C(F)(F)F)cc(C(F)(F)F)c1 too.
A: 84.7%

Q: Please give the result for CC(C)[C@H](N)C(=O)Oc1ccc(Cl)cc1C(=O)Nc1cc(C(F)(F)F)cc(C(F)(F)F)c1.Cl too.
A: 93.4%

Q: Please give the result for O=C(O)COc1ccc(Cl)cc1C(=O)Nc1cc(C(F)(F)F)cc(C(F)(F)F)c1 too.
A: 21.0%

Q: Please give the result for O=C(O)CN(CC(=O)O)C(=O)Oc1ccc(Cl)cc1C(=O)Nc1cc(C(F)(F)F)cc(C(F)(F)F)c1 too.
A: 98.9%

Q: Please give the result for CN(C(=O)Oc1ccc(Cl)cc1C(=O)Nc1cc(C(F)(F)F)cc(C(F)(F)F)c1)c1ccccc1 too.
A: 29.7%

Q: Please give the result for CC(C)(C)OC(=O)CC[C@H](NC(=O)OC(C)(C)C)C(=O)Oc1ccc(Cl)cc1C(=O)Nc1cc(C(F)(F)F)cc(C(F)(F)F)c1 too.
A: 97.2%

Q: Please give the result for CS(=O)(=O)Oc1ccc(Cl)cc1C(=O)Nc1cc(C(F)(F)F)cc(C(F)(F)F)c1 too.
A: 85.9%

Q: Please give the result for CC(C)(C)C(=O)c1sc(NC(=O)c2cc(Cl)ccc2OP(=O)([O-])O)nc1C(C)(C)C.[Na+] too.
A: >99.9%

Q: Please give the result for O=C(Nc1cc(C(F)(F)F)cc(C(F)(F)F)c1)c1cc(Cl)ccc1OC(=O)N1CCOCC1 too.
A: 70.6%

Q: Please give the result for O=C(Cc1ccccc1)Oc1ccc(Cl)cc1C(=O)Nc1cc(C(F)(F)F)cc(C(F)(F)F)c1 too.
A: 95.0%

Q: Please give the result for O=C(O)C[C@H](NC(=O)CNC(=O)Oc1ccc(Cl)cc1C(=O)Nc1cc(C(F)(F)F)cc(C(F)(F)F)c1)C(=O)O too.
A: 96.3%

Q: Please give the result for O=C(COc1cccc(Cl)c1Cl)Oc1ccc(Cl)cc1C(=O)Nc1cc(C(F)(F)F)cc(C(F)(F)F)c1 too.
A: 98.9%

Q: Please give the result for CSc1ccc(NC(=O)Oc2cc3ccccc3cc2C(=O)Nc2ccccc2)cc1 too.
A: 12.2%

Q: Please give the result for CCOC(=O)OC(C)Oc1ccc(Cl)cc1C(=O)Nc1cc(C(F)(F)F)cc(C(F)(F)F)c1 (stereo not drawn) too.
A: 96.1%

Q: Please give the result for O=C(O)CN(CC(=O)O)C(=O)OCOc1ccc(Cl)cc1C(=O)Nc1cc(C(F)(F)F)cc(C(F)(F)F)c1 too.
A: 61.0%

Q: Please give the result for CC(=O)OC[C@H]1O[C@@H](Oc2ccc(Cl)cc2C(=O)Nc2cc(C(F)(F)F)cc(C(F)(F)F)c2)[C@H](OC(C)=O)[C@@H](OC(C)=O)[C@@H]1OC(C)=O too.
A: 47.2%

Q: Please give the result for O=C(Oc1ccc(Cl)cc1C(=O)Nc1cc(C(F)(F)F)cc(C(F)(F)F)c1)c1cccnc1 too.
A: 94.4%

----------
Tested on: NF-κB activation
experimental_protocol: Inhibitory activity against NF-κB activation, luciferase reporter assay under TNF-α stimulation
Assay type: cell-based, human
condition_parameters: Drug Concentration 1 μg/mL; HepG2 cells, TNF-α 40 ng/ml, 4 hours
I'd be grateful if you could share measured Inhibitory Ratio of NF-κ B Activation(%) for these entries.
Just the number in %, nothing appended.

Q: Quick check: Inhibitory Ratio of NF-κ B Activation(%) of O=C(Nc1cc(C(F)(F)F)cc(C(F)(F)F)c1)c1cc(Cl)ccc1OCN1C(=O)c2ccccc2C1=O ?
A: 94.3

Q: Please give the result for CC(C)C[C@H](N)C(=O)Oc1ccc(Cl)cc1C(=O)Nc1cc(C(F)(F)F)cc(C(F)(F)F)c1.Cl too.
A: 95.8

Q: Please give the result for Cl.NCC(=O)Oc1ccc(Cl)cc1C(=O)Nc1cc(C(F)(F)F)cc(C(F)(F)F)c1 too.
A: 19.8

Q: Please give the result for CC(C)(Oc1ccc(Cl)cc1)C(=O)Oc1ccc(Cl)cc1C(=O)Nc1cc(C(F)(F)F)cc(C(F)(F)F)c1 too.
A: 96.6

Q: Please give the result for O=C(CCC(=O)Oc1ccc(Cl)cc1C(=O)Nc1cc(C(F)(F)F)cc(C(F)(F)F)c1)OCc1ccccc1 too.
A: 95.4

Q: Please give the result for COCOc1ccc(Cl)cc1C(=O)Nc1cc(C(F)(F)F)cc(C(F)(F)F)c1 too.
A: 21.6

Q: Please give the result for COc1ccccc1NC(=O)c1cc2cc(Br)ccc2cc1OP(=O)(O)O too.
A: 21.5

----------
Tested on: NF-κB activation
experimental_protocol: Inhibitory activity against NF-κB activation, luciferase reporter assay under TNF-α stimulation
Format: cell-based, human
condition_parameters: Drug Concentration 1 μg/mL; HepG2 cells, TNF-α 40 ng/ml, 4 hours
Procedure: Inhibitory activity against NF-κB activation was measured by referring to the method of Hill et al. (Cell, (USA), in 1993, Vol. 73, No. 2, p. 395-406). […] Then the cells were cultured for 4 hours after the addition of TNF-α (40 ng/ml) in the presence of a test compound, and intracellular luciferase activity was measured by using PicaGene LT (TOYO INK MFG Co., Ltd.) and a chemical luminescence measurement apparatus(SPECTRAFluor Plus; TECAN). […]
Decision: Inhibitory Ratio of NF-κ B Activation(%) compared against 80%; not below it gives true, below it gives false.

Q: Textbook exercise: given the entry COc1ccc(Cl)cc1C(=O)Nc1cc(C(F)(F)F)cc(C(F)(F)F)c1 , state whether its Inhibitory Ratio of NF-κ B Activation(%) is greater than or equal to 80%.
A: false

Q: Please give the result for CC(Oc1ccccc1)C(=O)Oc1ccc(Cl)cc1C(=O)Nc1cc(C(F)(F)F)cc(C(F)(F)F)c1 (stereo not shown) too.
A: true

Q: Please give the result for Cc1ccc(S(=O)(=O)Oc2ccc(Cl)cc2C(=O)Nc2cc(C(F)(F)F)cc(C(F)(F)F)c2)cc1 too.
A: true

Q: Please give the result for Cl.Cl.NCCCC[C@H](N)C(=O)Oc1ccc(Cl)cc1C(=O)Nc1cc(C(F)(F)F)cc(C(F)(F)F)c1 too.
A: false

Q: Please give the result for CC(=O)Oc1ccccc1C(=O)Oc1ccc(Cl)cc1C(=O)Nc1cc(C(F)(F)F)cc(C(F)(F)F)c1 too.
A: true

Q: Please give the result for O=C(Nc1cc(C(F)(F)F)cc(C(F)(F)F)c1)c1cc(Cl)ccc1OCOC(=O)N1CCC(C(=O)O)CC1 too.
A: false

Q: Please give the result for CC(=O)NCC(=O)Oc1ccc(Cl)cc1C(=O)Nc1cc(C(F)(F)F)cc(C(F)(F)F)c1 too.
A: true
